Could you please report measured inhibition of SARS-CoV-2 cytopathic effect for the items listed next?
System: Vero E6 infected with SARS-CoV-2
Experiment: inhibition of SARS-CoV-2 cytopathic effect; higher = more antiviral protection, active = above 15
Conditions: 10000 nM; 48 h
Give bare numbers, in %.

Use the examples below as a reference point.
1. S=C(NCCc1ccccn1)Nc1ccc(Br)cn1	0.69
2. O=C(O)C1=CCCN(CCOC(c2ccc(C(F)(F)F)cc2)c2ccc(C(F)(F)F)cc2)C1	0.32

# ---- query compound ----
// returns reported inhibition of SARS-CoV-2 cytopathic effect for input `Cc1cc(O)cc2c1O[C@](C)(CCC[C@H](C)CCC[C@H](C)CCCC(C)C)CC2`
-0.19

----------
Tested on: Vero E6 infected with SARS-CoV-2
Test: inhibition of SARS-CoV-2 cytopathic effect; higher = more antiviral protection, active = above 15
Settings: 8.33 nM; 48 h
MEASURED_ENDPOINT: inhibition of SARS-CoV-2 cytopathic effect (%)
Give bare numbers, in %.

Use the examples below as a reference point.
1. Cc1c(C2CCN(CCc3ccccc3)CC2)noc1-c1ccc(Cl)cc1	5.24
2. NCCC[C@H](N)CC(=O)N[C@H]1CNC(=O)[C@H]([C@H]2C[C@H](O)NC(N)=N2)NC(=O)/C(=C/NC(N)=O)NC(=O)[C@H](CO)NC(=O)[C@H](CO)NC1=O	1
3. CCCCCCCCCCCCCCCc1cccc(OCC(=O)NCCO)c1	-2.66
4. CC1=C(/C=C/C(C)=C/C=C/C(C)=C/C(=O)Nc2ccc(O)cc2)C(C)(C)CCC1 [fenretinide]	1.04
5. CC(C)(C)NCC(O)c1cc(Cl)c(N)c(Cl)c1 (configuration not stated)	-0.13
6. NS(=O)(=O)c1cc2c(cc1Cl)NCNS2(=O)=O [hydrochlorothiazide]	0.33
7. CC(C)NCC(O)c1cc(O)cc(O)c1 (configuration not stated)	3.21
8. CC(C)c1cc(-c2ccc(F)c3ccccc23)nc(N)n1	1.62
9. CCCOc1ccc(S(=O)(=O)N2CCN(CCO)CC2)cc1-c1nc2c(CCC)cn(CC)c2c(=O)[nH]1	0.66
10. CCCCCCCC/C=C/C(=O)O [trans-2-undecenoic-acid]	-0.12

Give measured inhibition of SARS-CoV-2 cytopathic effect for every item shown.
1. CCOC(=O)C1=C(C)NC(C)=C(C(=O)OC)[C@@H]1c1cccc([N+](=O)[O-])c1 (racemic)
2. O=C(CCCl)NCCc1ccccc1

1. 0.33
2. -2.28

----------
Could you please report measured inhibition of SARS-CoV-2 cytopathic effect for the items listed next?
System: Vero E6 infected with SARS-CoV-2
Experiment: inhibition of SARS-CoV-2 cytopathic effect; higher = more antiviral protection, active = above 15
Conditions: 100 nM; 48 h
One number for each entry, in %.

Give measured inhibition of SARS-CoV-2 cytopathic effect for every item shown.
1. CN[C@@H](C)CC1CCCCC1
2. NC(=O)c1ncn([C@@H]2O[C@H](CO)[C@@H](O)[C@H]2O)n1
3. COc1cc(C(=S)N2CCOCC2)cc(OC)c1OC

1. -5.29
2. -6.04
3. 1.75

Give measured inhibition of SARS-CoV-2 cytopathic effect for every item shown.
1. Cc1ccc2c(c1)c1c(n2CCc2ccc(C)nc2)CCN(C)C1 [latrepirdine]
2. CN(C)Cc1ccc(-c2nc3cccc4c3n2CCNC4=O)cc1
3. Cc1ccc(S(=O)(=O)N2CCC[C@H]2c2ccc(F)cc2)cc1
4. O=C(NCC1CCCCN1)c1cc(OCC(F)(F)F)ccc1OCC(F)(F)F (stereo not drawn) [flecainide]

1: -0.92; 2: 3.95; 3: 0.49; 4: -0.28

----------
Tested on: Vero E6 infected with SARS-CoV-2
Assay: inhibition of SARS-CoV-2 cytopathic effect; higher = more antiviral protection, active = above 15
Conditions: 10000 nM; 48 h
MEASURED_ENDPOINT: inhibition of SARS-CoV-2 cytopathic effect (%)
Give bare numbers, in %.

1. COc1cc2ncnc(Oc3cccc(NC(=O)Nc4cc(C(C)(C)C(F)(F)F)on4)c3)c2cc1OC	-6.45
2. CCCNC(=O)Nc1ccc(Oc2ncnc3cc(OC)c(OC)cc23)cc1Cl	-2.74
3. O=C(Cn1ccnc1[N+](=O)[O-])NCc1ccccc1 [benznidazole]	0.58
4. Cc1onc(-c2ccccc2Cl)c1C(=O)N[C@@H]1C(=O)N2[C@@H]1SC(C)(C)[C@@H]2C(=O)O [cloxacillin]	1.27
5. CCN(CC)CCOc1ccc2c(c1)C(=O)c1cc(OCCN(CC)CC)ccc1-2 [tilorone]	24.9
6. N#Cc1ccc(-c2ccc(S(=O)(=O)Nc3cccc(N)n3)cc2)cc1	1.78
7. O=C(Nc1c[nH]nc1-c1nc2ccc(CN3CCOCC3)cc2[nH]1)NC1CC1	-5.1
8. COc1cc2cc(c1Cl)N(C)C(=O)C[C@H](OC(=O)C(C)C)[C@]1(C)O[C@@H]1[C@H](C)[C@@H]1C[C@@](O)(NC(=O)O1)[C@H](OC)/C=C/C=C(\C)C2 [ansamitocin-p-3]	0.75
9. FC(F)(F)c1cccc(-c2noc(-c3cc(-c4ccccc4)c(C(F)(F)F)s3)n2)c1	1.68
10. CN[C@H]1C(=O)N[C@@H]2Cc3ccc(cc3)Oc3cc4cc(c3O[C@@H]3O[C@H](C(=O)O)[C@@H](O)[C@H](O)[C@H]3NC(=O)CCCCCCCCC(C)C)Oc3ccc(cc3Cl)[C@@H](O)[C@@H]3NC(=O)[C@H](NC(=O)[C@@H]4NC(=O)[C@@H](NC2=O)c2cc(cc(O)c2Cl)Oc2cc1ccc2O)c1ccc(O)c(c1)-c1c(O[C@H]2O[C@H](CO)[C@@H](O)[C@H](O)[C@@H]2O)cc(O)cc1[C@@H](C(=O)NCCCN(C)C)NC3=O [dalbavancin]	1.46

Give measured inhibition of SARS-CoV-2 cytopathic effect for every item shown.
1. O=C(O)/C=C/c1ccc(-c2ccc(O)c(C34CC5CC(CC(C5)C3)C4)c2)cc1 [adarotene]
2. FC(F)(F)C(F)(F)C(F)(F)N(C(F)(F)C(F)(F)C(F)(F)F)C(F)(F)C(F)(F)C(F)(F)F [perfluamine]
3. COc1cccc([C@@H](C)NCCCc2ccccc2Cl)c1 [tecalcet]
4. CC(O)COC[C@H]1O[C@@H]2O[C@H]3[C@H](O)[C@@H](O)[C@@H](O[C@H]4[C@H](O)[C@@H](O)[C@@H](O[C@H]5[C@H](O)[C@@H](O)[C@@H](O[C@H]6[C@H](O)[C@@H](O)[C@@H](O[C@H]7[C@H](O)[C@@H](O)[C@@H](O[C@H]8[C@H](O)[C@@H](O)[C@@H](O[C@H]1[C@H](O)[C@H]2O)O[C@@H]8COCC(C)O)O[C@@H]7COCC(C)O)O[C@@H]6COCC(C)O)O[C@@H]5COCC(C)O)O[C@@H]4COCC(C)O)O[C@@H]3COCC(C)O (stereo partly drawn) [hydroxypropyl-beta-cyclodextrin]
5. Cc1cnc(-c2ccccc2C(C)C)nc1NCc1ccc(-n2ccnn2)cc1
6. CC[N+](CC)(CC)CC(=O)Nc1c(C)cccc1C
7. COc1cc(C(=S)N2CCOCC2)cc(OC)c1OC [sulmetozine]
8. OC[C@H]1O[C@H]([S-])[C@H](O)[C@@H](O)[C@@H]1O.[Au+] [aurothioglucose]

-6.23
-1.62
-3.1
0.7
1.03
-0.17
2.55
0.69

Give measured inhibition of SARS-CoV-2 cytopathic effect for every item shown.
1. O=C(O)C(=O)c1cn(Cc2ccccc2)c2ccc(-c3ccc(OC(F)(F)F)cc3)cc12 [tiplaxtinin]
2. COc1cc2ncnc(Nc3ccc(Oc4ccccc4)cc3)c2cc1OC [SRC-kinase-inhibitor-I]

4.09
-9.32

// returns reported inhibition of SARS-CoV-2 cytopathic effect for input C[C@@H]1C(=O)O[C@H]2C[C@@]34[C@H]5C[C@@H](C(C)(C)C)[C@]36[C@@H](OC(=O)[C@@H]6O)O[C@@]4(C(=O)O5)[C@]21O [Ginkgolide A]
-1.89

----------
System: Vero E6 infected with SARS-CoV-2
Experiment: SARS-CoV-2 infection rate relative to infected DMSO; higher = more infection, active = 60 or less
Conditions: 24 h
MEASURED_ENDPOINT: SARS-CoV-2 infection rate (%)
Answers are plain numbers, in %.

1) CCn1cc(-c2cccc(C(F)(F)F)c2)c2sc(C(=N)NC3CCS(=O)(=O)CC3)cc2c1=O (10 µM)	110
2) C[C@H](c1ccc2ccc(OC3CCC(C(F)(F)F)CC3)c(C(F)(F)F)c2c1)N1C2CCC1CC(C(=O)O)C2 (some centres not stated) [autotaxin-modulator-1] (10 µM)	91
3) COc1cccc(OCCCN)c1-c1cc(Nc2cnc(C#N)cn2)n[nH]1 (10 µM)	103

Give measured SARS-CoV-2 infection rate for every item shown.
1. N[C@@H](Cn1oc(=O)[nH]c1=O)C(=O)O [L-quisqualic-acid] (10 µM)
2. c1ccc2sc(SNC3CCCCC3)nc2c1 [N-cyclohexyl-2-benzothiazolesulfenamide] (10 µM)
3. CCN(CCCOc1ccc2c(Nc3cc(CC(=O)Nc4cccc(F)c4)[nH]n3)ncnc2c1)CCOP(=O)(O)O [barasertib] (0.833333 µM)
4. CCCCOc1cc(C(=O)OCCN(CC)CC)ccc1N [oxybuprocaine] (10 µM)

1. 106
2. 106
3. 112
4. 114
